- tested_on: Mu-type opioid receptor (Homo sapiens)
- method: Inhibition of mu opioid receptor (unknown origin) at 10 uM relative to control

[
  {
    "molecule": "Cl.NCc1ccc(OCc2cccc(Cl)c2)cc1",
    "inhibition": "-2.2%"
  },
  {
    "molecule": "Cl.NCc1ccc(OCc2ccccc2OC(F)(F)F)cc1",
    "inhibition": "-4.8%"
  },
  {
    "molecule": "Cl.NCc1ccc(OCc2cccc(F)c2)cc1",
    "inhibition": "-8.6%"
  },
  {
    "molecule": "Cl.NCc1ccc(OCc2ccc(Cl)cc2)cc1",
    "inhibition": "-2.3%"
  },
  {
    "molecule": "Cl.NCc1ccc(OCc2ccc(OC(F)(F)F)cc2)cc1",
    "inhibition": "-5.6%"
  },
  {
    "molecule": "Cl.NCc1ccc(OCc2ccc(F)cc2)cc1",
    "inhibition": "-5.5%"
  },
  {
    "molecule": "Cl.NCc1ccc(OCc2ccccc2)cc1",
    "inhibition": "-5.8%"
  },
  {
    "molecule": "Cl.NCc1ccc(OCc2cccc(OC(F)(F)F)c2)cc1",
    "inhibition": "2.8%"
  }
]

----------
- tested_on: Alpha-1D adrenergic receptor (Homo sapiens)
- method: Inhibition of adrenergic alpha-1D receptor (unknown origin) at 10 uM relative to control
The entries below come with measured inhibition values attached.
experimental_endpoint: inhibition (%)

[
  {
    "molecule": "Cl.NCc1ccc(OCc2ccc(F)cc2)cc1",
    "experimental_endpoint": "inhibition",
    "recorded_number": 0.2
  },
  {
    "molecule": "Cl.NCc1ccc(OCc2cccc(Cl)c2)cc1",
    "experimental_endpoint": "inhibition",
    "recorded_number": -1.9
  },
  {
    "molecule": "Cl.NCc1ccc(OCc2ccc(Cl)cc2)cc1",
    "experimental_endpoint": "inhibition",
    "recorded_number": -6.6
  },
  {
    "molecule": "Cl.NCc1ccc(OCc2cccc(F)c2)cc1",
    "experimental_endpoint": "inhibition",
    "recorded_number": -9.1
  },
  {
    "molecule": "Cl.NCc1ccc(OCc2ccccc2OC(F)(F)F)cc1",
    "experimental_endpoint": "inhibition",
    "recorded_number": 6.5
  }
]

----------
- tested_on: UniProt:P46098
- Sequence (P46098 whole entry): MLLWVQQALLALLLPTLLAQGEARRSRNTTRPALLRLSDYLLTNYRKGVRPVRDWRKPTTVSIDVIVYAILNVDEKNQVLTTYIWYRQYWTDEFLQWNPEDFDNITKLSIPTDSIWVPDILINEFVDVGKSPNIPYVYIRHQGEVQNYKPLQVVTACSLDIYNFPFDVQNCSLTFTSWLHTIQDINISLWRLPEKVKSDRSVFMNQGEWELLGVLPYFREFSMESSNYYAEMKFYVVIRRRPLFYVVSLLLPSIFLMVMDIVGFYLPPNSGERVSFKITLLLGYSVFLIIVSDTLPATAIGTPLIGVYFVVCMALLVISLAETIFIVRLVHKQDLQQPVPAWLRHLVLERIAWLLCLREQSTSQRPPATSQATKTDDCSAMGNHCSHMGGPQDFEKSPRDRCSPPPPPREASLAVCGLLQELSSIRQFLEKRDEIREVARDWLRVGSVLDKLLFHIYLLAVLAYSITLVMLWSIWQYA
- method: Inhibition of 5-HT3 receptor (unknown origin) at 10 uM relative to control
The entries below come with measured inhibition values attached.

[
  {
    "molecule": "Cl.NCc1ccc(OCc2ccccc2OC(F)(F)F)cc1",
    "tested_on": "UniProt:P46098",
    "inhibition / %": 10.4
  },
  {
    "molecule": "Cl.NCc1ccc(OCc2cccc(Cl)c2)cc1",
    "tested_on": "UniProt:P46098",
    "inhibition / %": 13.7
  },
  {
    "molecule": "Cl.NCc1ccc(OCc2ccc(Cl)cc2)cc1",
    "tested_on": "UniProt:P46098",
    "inhibition / %": 23.1
  },
  {
    "molecule": "Cl.NCc1ccc(OCc2ccc(F)cc2)cc1",
    "tested_on": "UniProt:P46098",
    "inhibition / %": -4.2
  }
]

----------
- tested_on: Sigma non-opioid intracellular receptor 1 (Homo sapiens)
- method: Inhibition of sigma-1 receptor (unknown origin) at 10 uM relative to control

[
  {
    "molecule": "Cl.NCc1ccc(OCc2ccc(OC(F)(F)F)cc2)cc1",
    "tested_on": "Sigma non-opioid intracellular receptor 1 (Homo sapiens)",
    "readout_unit": "%",
    "inhibition": 91.1
  },
  {
    "molecule": "Cl.NCc1ccc(OCc2ccccc2OC(F)(F)F)cc1",
    "tested_on": "Sigma non-opioid intracellular receptor 1 (Homo sapiens)",
    "readout_unit": "%",
    "inhibition": 92.9
  },
  {
    "molecule": "Cl.NCc1ccc(OCc2cccc(F)c2)cc1",
    "tested_on": "Sigma non-opioid intracellular receptor 1 (Homo sapiens)",
    "readout_unit": "%",
    "inhibition": 102
  },
  {
    "molecule": "Cl.NCc1ccc(OCc2cccc(OC(F)(F)F)c2)cc1",
    "tested_on": "Sigma non-opioid intracellular receptor 1 (Homo sapiens)",
    "readout_unit": "%",
    "inhibition": 96.9
  },
  {
    "molecule": "Cl.NCc1ccc(OCc2ccccc2)cc1",
    "tested_on": "Sigma non-opioid intracellular receptor 1 (Homo sapiens)",
    "readout_unit": "%",
    "inhibition": 97.7
  },
  {
    "molecule": "Cl.NCc1ccc(OCc2ccccc2F)cc1",
    "tested_on": "Sigma non-opioid intracellular receptor 1 (Homo sapiens)",
    "readout_unit": "%",
    "inhibition": 102
  },
  {
    "molecule": "Cl.NCc1ccc(OCc2ccc(Cl)cc2)cc1",
    "tested_on": "Sigma non-opioid intracellular receptor 1 (Homo sapiens)",
    "readout_unit": "%",
    "inhibition": 90.6
  },
  {
    "molecule": "Cl.NCc1ccc(OCc2ccc(F)cc2)cc1",
    "tested_on": "Sigma non-opioid intracellular receptor 1 (Homo sapiens)",
    "readout_unit": "%",
    "inhibition": 92.7
  },
  {
    "molecule": "Cl.NCc1ccc(OCc2cccc(Cl)c2)cc1",
    "tested_on": "Sigma non-opioid intracellular receptor 1 (Homo sapiens)",
    "readout_unit": "%",
    "inhibition": 89.4
  }
]

----------
- Species on record: Homo sapiens
- method: Inhibition of sigma-2 receptor (unknown origin) at 10 uM relative to control
Is inhibition at least 80%? Then met. If not, not met.

[
  {
    "molecule": "Cl.NCc1ccc(OCc2cccc(OC(F)(F)F)c2)cc1",
    "classification": "met"
  },
  {
    "molecule": "Cl.NCc1ccc(OCc2cccc(F)c2)cc1",
    "classification": "not met"
  },
  {
    "molecule": "Cl.NCc1ccc(OCc2ccc(F)cc2)cc1",
    "classification": "not met"
  },
  {
    "molecule": "Cl.NCc1ccc(OCc2ccccc2F)cc1",
    "classification": "not met"
  },
  {
    "molecule": "Cl.NCc1ccc(OCc2ccccc2OC(F)(F)F)cc1",
    "classification": "met"
  },
  {
    "molecule": "Cl.NCc1ccc(OCc2ccc(OC(F)(F)F)cc2)cc1",
    "classification": "met"
  },
  {
    "molecule": "Cl.NCc1ccc(OCc2ccccc2)cc1",
    "classification": "not met"
  }
]

----------
The entries below come with measured inhibition values attached.
- tested_on: D(2) dopamine receptor (Homo sapiens) (UniProt P14416)
- Sequence (P14416 whole entry): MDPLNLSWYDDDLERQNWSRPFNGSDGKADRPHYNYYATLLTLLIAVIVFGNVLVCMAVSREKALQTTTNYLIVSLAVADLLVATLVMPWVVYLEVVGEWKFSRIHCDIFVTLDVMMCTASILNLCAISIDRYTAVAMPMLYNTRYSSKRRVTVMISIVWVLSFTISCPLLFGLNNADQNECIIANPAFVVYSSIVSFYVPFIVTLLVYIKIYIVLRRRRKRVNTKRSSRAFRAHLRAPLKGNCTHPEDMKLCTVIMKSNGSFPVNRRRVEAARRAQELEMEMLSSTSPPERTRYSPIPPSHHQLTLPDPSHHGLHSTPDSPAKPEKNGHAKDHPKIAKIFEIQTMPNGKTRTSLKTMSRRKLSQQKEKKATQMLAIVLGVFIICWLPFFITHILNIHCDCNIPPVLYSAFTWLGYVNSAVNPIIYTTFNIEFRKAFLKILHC
- method: Inhibition of dopaminergic D2 receptor (unknown origin) at 10 uM relative to control

[
  {
    "molecule": "Cl.NCc1ccc(OCc2ccccc2F)cc1",
    "tested_on": "D(2) dopamine receptor (Homo sapiens) (UniProt P14416)",
    "readout_unit": "%",
    "inhibition": 7.4
  },
  {
    "molecule": "Cl.NCc1ccc(OCc2cccc(F)c2)cc1",
    "tested_on": "D(2) dopamine receptor (Homo sapiens) (UniProt P14416)",
    "readout_unit": "%",
    "inhibition": 3.2
  },
  {
    "molecule": "Cl.NCc1ccc(OCc2ccccc2)cc1",
    "tested_on": "D(2) dopamine receptor (Homo sapiens) (UniProt P14416)",
    "readout_unit": "%",
    "inhibition": 12.4
  },
  {
    "molecule": "Cl.NCc1ccc(OCc2ccc(OC(F)(F)F)cc2)cc1",
    "tested_on": "D(2) dopamine receptor (Homo sapiens) (UniProt P14416)",
    "readout_unit": "%",
    "inhibition": 5.3
  },
  {
    "molecule": "Cl.NCc1ccc(OCc2ccccc2OC(F)(F)F)cc1",
    "tested_on": "D(2) dopamine receptor (Homo sapiens) (UniProt P14416)",
    "readout_unit": "%",
    "inhibition": 12.7
  }
]

----------
- tested_on: Muscarinic acetylcholine receptor M2 (Homo sapiens) (UniProt P08172)
- Sequence (whole entry): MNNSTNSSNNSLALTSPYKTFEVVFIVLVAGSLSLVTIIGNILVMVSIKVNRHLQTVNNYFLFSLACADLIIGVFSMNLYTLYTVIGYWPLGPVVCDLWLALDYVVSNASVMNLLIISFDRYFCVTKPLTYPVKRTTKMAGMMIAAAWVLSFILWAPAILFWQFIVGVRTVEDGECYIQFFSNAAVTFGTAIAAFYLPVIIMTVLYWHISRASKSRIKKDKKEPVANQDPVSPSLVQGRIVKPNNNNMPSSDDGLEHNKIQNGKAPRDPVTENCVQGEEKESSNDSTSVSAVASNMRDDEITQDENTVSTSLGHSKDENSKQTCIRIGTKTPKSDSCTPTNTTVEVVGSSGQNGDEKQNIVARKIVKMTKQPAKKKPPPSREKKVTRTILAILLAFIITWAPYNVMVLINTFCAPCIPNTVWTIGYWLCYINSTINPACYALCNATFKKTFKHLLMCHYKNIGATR
- method: Inhibition of muscarinergic M2 receptor (unknown origin) at 10 uM relative to control

[
  {
    "molecule": "Cl.NCc1ccc(OCc2cccc(Cl)c2)cc1",
    "tested_on": "Muscarinic acetylcholine receptor M2 (Homo sapiens) (UniProt P08172)",
    "inhibition / %": 13.1
  },
  {
    "molecule": "Cl.NCc1ccc(OCc2cccc(OC(F)(F)F)c2)cc1",
    "tested_on": "Muscarinic acetylcholine receptor M2 (Homo sapiens) (UniProt P08172)",
    "inhibition / %": 4.5
  },
  {
    "molecule": "Cl.NCc1ccc(OCc2ccccc2)cc1",
    "tested_on": "Muscarinic acetylcholine receptor M2 (Homo sapiens) (UniProt P08172)",
    "inhibition / %": -2.5
  },
  {
    "molecule": "Cl.NCc1ccc(OCc2cccc(F)c2)cc1",
    "tested_on": "Muscarinic acetylcholine receptor M2 (Homo sapiens) (UniProt P08172)",
    "inhibition / %": -6
  },
  {
    "molecule": "Cl.NCc1ccc(OCc2ccc(F)cc2)cc1",
    "tested_on": "Muscarinic acetylcholine receptor M2 (Homo sapiens) (UniProt P08172)",
    "inhibition / %": 12.6
  },
  {
    "molecule": "Cl.NCc1ccc(OCc2ccc(Cl)cc2)cc1",
    "tested_on": "Muscarinic acetylcholine receptor M2 (Homo sapiens) (UniProt P08172)",
    "inhibition / %": 10.9
  },
  {
    "molecule": "Cl.NCc1ccc(OCc2ccc(OC(F)(F)F)cc2)cc1",
    "tested_on": "Muscarinic acetylcholine receptor M2 (Homo sapiens) (UniProt P08172)",
    "inhibition / %": 1.9
  },
  {
    "molecule": "Cl.NCc1ccc(OCc2ccccc2F)cc1",
    "tested_on": "Muscarinic acetylcholine receptor M2 (Homo sapiens) (UniProt P08172)",
    "inhibition / %": -7.5
  },
  {
    "molecule": "Cl.NCc1ccc(OCc2ccccc2OC(F)(F)F)cc1",
    "tested_on": "Muscarinic acetylcholine receptor M2 (Homo sapiens) (UniProt P08172)",
    "inhibition / %": 3.8
  }
]
